Biological target: Peroxisomal primary amine oxidase (Pichia angusta, UniProt P12807)
Sequence (P12807 whole entry): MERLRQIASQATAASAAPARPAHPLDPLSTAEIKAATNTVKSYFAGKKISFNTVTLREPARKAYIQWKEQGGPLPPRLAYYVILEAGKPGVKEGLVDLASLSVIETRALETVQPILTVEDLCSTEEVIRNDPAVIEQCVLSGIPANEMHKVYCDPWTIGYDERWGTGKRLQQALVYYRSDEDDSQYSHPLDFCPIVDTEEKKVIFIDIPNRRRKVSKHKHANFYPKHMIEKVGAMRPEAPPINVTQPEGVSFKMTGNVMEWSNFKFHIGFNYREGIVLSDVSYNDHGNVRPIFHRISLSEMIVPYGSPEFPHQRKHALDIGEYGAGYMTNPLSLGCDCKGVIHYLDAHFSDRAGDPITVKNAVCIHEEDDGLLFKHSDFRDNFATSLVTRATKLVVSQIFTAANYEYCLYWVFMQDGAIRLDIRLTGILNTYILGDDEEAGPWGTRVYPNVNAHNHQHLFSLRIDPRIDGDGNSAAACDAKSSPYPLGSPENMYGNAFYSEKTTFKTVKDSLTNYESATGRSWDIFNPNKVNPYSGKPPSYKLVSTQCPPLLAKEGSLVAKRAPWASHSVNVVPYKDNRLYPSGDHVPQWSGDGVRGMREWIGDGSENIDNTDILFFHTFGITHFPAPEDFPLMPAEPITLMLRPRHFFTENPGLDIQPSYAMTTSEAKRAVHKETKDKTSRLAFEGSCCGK
Experiment: Inhibition of beta-phenylethylamine binding to Hansenula polymorpha amine oxidase
measurement name: pIC50
In textbook form, pIC50 equals minus log to base ten of the concentration in mol/L.

For reference, reported pIC50 for `CCNc1ccccc1CN` stands at 2.82
